Compiled from multiple publications: IC50 readings for 3',5'-cyclic-AMP phosphodiesterase 4B (Homo sapiens, UniProt Q07343).

>  <inputSmiles>
COc1ccc(CNC(=O)c2ccc(OC)c(OCC3CC3)c2)cc1

>  <IC50 (nM)>
1090

$$$$
>  <inputSmiles>
COc1ccc(/C=C2\SC(=S)NC2=O)cc1OC1CCCC1

>  <IC50 (nM)>
890

$$$$
>  <inputSmiles>
CN(C)c1ccc(-c2nc3c(c(Nc4ccc(CC(=O)O)cc4)n2)SCCC3)cn1

>  <IC50 (nM)>
140

$$$$
>  <inputSmiles>
COc1ccc(CNC(=O)c2ccc(OC(F)F)c(OCC3CC3)c2)cc1

>  <IC50 (nM)>
301

$$$$
>  <inputSmiles>
O=C(O)Cc1ccc(Nc2nc(-c3ccccc3)nc3c2SCCC3)cc1

>  <IC50 (nM)>
210

$$$$
>  <inputSmiles>
CCn1c(NC2CCCC2)nc2cc(CNc3cccnc3)sc2c1=O

>  <IC50 (nM)>
920

$$$$
>  <inputSmiles>
C=CCc1c(C)nc(-c2csc(C)n2)nc1Nc1ccc(C(=O)O)cc1

>  <IC50 (nM)>
2800

$$$$
